System: K-562 cells
Assay: K-562 cell proliferation assay (CellTiter-Glo)
Assay type: cell-based
Details: Homo sapiens, K562, 96 h; expected value of assay standard; 4 days incubation; read-out: EC50 to inhibit K-562 cell growth
pEC50: −log10 of the molar value.
propertyName: pEC50

Query COC(=O)Nc1nc2ccc(C(=O)c3cccs3)cc2[nH]1 yields pEC50 of ~7.40
